System: 786-0 renal
Test: NCI tumour cell line growth inhibition, 48 h
Attribute Measured: GI50

In [3]: df
Out[3]:
                                   compound  obs_value
0  Cc1[nH]nc2c1N=C(c1ccccc1F)c1cc(C(N)=O)ccc1N2    2.82 µM
1      Cc1cc(C(=O)O)c(C)n1-c1cccc(C(=O)O)c1   > 100 µM
2  C=CC/C(=C\COP(=O)(OCc1ccc([N+](=O)[O-])o1)N(C)CCCCCl)CC/C=C(\C)CCC=C(C)C (stereo not drawn)    13.2 µM

* * *

System: HT29 colon
Test: NCI tumour cell line growth inhibition, 48 h
Quick list: TGI per entry.
Attribute Measured: TGI (µM)

>>> df
                                    compound  relation_symbol  obs_value
 0  Cc1ccc(C2=Nc3c(N)ncnc3NC(c3ccc4c(c3)OCO4)C2)cc1 (stereo unspecified)                =       33.9
 1  CC1Cc2cc(O)c(O)cc2-c2cc(O)c(O)cc2CC1C (stereo unspecified)                =       63.9
 2  Cc1cc(C(=O)NC(CCC(=O)O)C(=O)O)sc1CCC1CNc2nc(N)[nH]c(=O)c2C1 (stereo unspecified)                >        100
 3                           NCCSCc1ccccc1Cl                >        100
 4  Cc1ccc(C(SCC(N)C(=O)O)(c2ccccc2)c2ccccc2)cc1 (stereo unspecified)                >        100
 5  CCOC(=O)/C=C/[C@H](O)[C@@H](O)/C=C/C(=O)OCC                =       36.9
 6  O=C(Cc1nc2ncccc2[nH]c1=O)c1c[nH]c2ccccc12                =       60.9
 7           C/C(=N\N=C(\[Se])N(C)C)c1ccccn1                =       14.2
 8        NC(=O)/C=c1/c2ccccc2n2nc3ccccc3c12                =       29.8
 9  Cc1nc2ccc(NC3OC(CO)C(O)C(O)C3O)cc2c(=O)n1-c1ccccc1 (stereo unspecified)                >        100
10  CCN(CC)CCCNc1nc(=O)[nH]c(C)c1C(=O)Nc1ccc2c(c1)c1ccccc1n2CC                >        100

* * *

Test system: SN12C renal
Assay: NCI tumour cell line growth inhibition, 48 h
Attribute Measured: TGI

                                   compound  assay_system  obs_value
0                       Oc1cccc2cc(Br)cnc12   SN12C renal   > 100 µM
1  CCOC(=O)/C=C/[C@H](O)[C@@H](O)/C=C/C(=O)OCC   SN12C renal    85.2 µM
2  COc1ccc2c(c1)[n+]([O-])c(-c1ccc(C)cc1)c(N)[n+]2[O-]   SN12C renal   > 100 µM
3      Cc1ccc(C(O)(c2ccc(C)cc2)c2ccccn2)cc1   SN12C renal   > 100 µM
4  Cc1nc2ccc(NC3OC(CO)C(O)C(O)C3O)cc2c(=O)n1-c1ccccc1 (configuration not stated)   SN12C renal   > 100 µM
5  Cc1sc(C)c2c1C(=O)CC2N (configuration not stated)   SN12C renal  > 58.6 µM
6                 CCN(CC)C(=O)N1CCN(C=S)CC1   SN12C renal   > 100 µM

* * *

Test system: BT-549 breast
Assay: NCI tumour cell line growth inhibition, 48 h
Label Condition met when TGI is at or above 20 µM; otherwise label Condition not met.

>>> print(df.to_string())
                                    compound  assigned_category
 0        Cc1ccn2c(CCc3nnc4cc(C)ccn34)nnc2c1      Condition met
 1  O=C1NC(=O)/C(=C/c2ccc(S(=O)(=O)N/N=C\C(O)C(O)C(O)C(O)CO)cc2)N1 (stereo not drawn)      Condition met
 2  Cc1cc(C(=O)NC(CCC(=O)O)C(=O)O)sc1CCC1CNc2nc(N)[nH]c(=O)c2C1 (stereo not drawn)      Condition met
 3  CC1=CC(C)C(C)N(CCNS(=O)(=O)c2ccc(C)cc2)c2ccccc21 (stereo not drawn)      Condition met
 4  COc1c(-c2ccc(O)c(O)c2)oc2c(O)c(O)cc(O)c2c1=O      Condition met
 5  C=CC(Br)(CBr)CCC(Br)C(C)(C)Cl (stereo not drawn)      Condition met
 6  CN1CCN(Cc2ccc(NC(=O)c3cncc(C#Cc4cncc5nccnc45)c3)cc2C(F)(F)F)CC1  Condition not met
 7   N=C(N)c1ccc(NCCOCCNc2ccc(C(=N)N)cc2)cc1      Condition met
 8                          COC(=O)C(CBr)CBr  Condition not met
 9               O=C1c2ccccc2CC12Cc1ccccc1C2      Condition met
10  Oc1cccc(/C=N/Nc2nnc(N/N=C/c3cccc(O)c3)c3ccccc23)c1      Condition met
11  CCOC(=O)c1oc2ccc([N+](=O)[O-])c3c2c1CCC3      Condition met
12  COc1cc2ncnc(Nc3ccc4c(cnn4Cc4ccccc4)c3)c2cc1OC      Condition met
13      Cc1cc(C(=O)O)c(C)n1-c1cccc(C(=O)O)c1      Condition met
14  O=C(CC(=O)N1N=C(N(c2ccccc2)c2ccccc2)CC1c1ccccc1)Nc1ccc(Cl)cc1 (stereo not drawn)      Condition met
15  O=[N+]([O-])/C(C(Cl)=C(Cl)Cl)=C(\Nc1ccccc1)n1nnc2ccccc21      Condition met
16  O=C(O)CCc1c2ccc(=O)c(O)c-2oc2c(O)c(O)ccc12      Condition met
17  COC1=CC(=O)c2c(c(COP(=O)(N(C)CCBr)N(C)CCBr)cn2C)C1=O  Condition not met
18  CCN(CC)c1ccc2cc(-c3nnc(-c4ccccc4O)o3)c(=O)oc2c1      Condition met
19                     O=C(CCCl)NNC1=NCCCCN1      Condition met
20  CC1(C)C2CC3C4CC5(Nc6ccccc6C5N41)[C@]3(C)CC2=O (stereo partly drawn)      Condition met
21  COc1ccc(N=Nc2c(C)c(C#N)c(=S)n(C3OC(CO)C(O)C(O)C3O)c2C)cc1 (stereo not drawn)      Condition met
22                        CN(C)C=NCCN1CCOCC1      Condition met
23              CN1C=Cc2nccc3cc4c(c1c23)OCO4  Condition not met
24  COC(=O)C1=C(C(=O)OC)SC(=C2S[C@@H]3[C@@H]4C[C@H]([C@@H]3S2)[C@H]2C(=O)OC(=O)[C@@H]42)S1      Condition met
25               CC(/C=C/c1ccccc1)=N\NC(N)=S      Condition met
26  C/C(=N\NC(=S)N1CC2CCC(CC2)C1)c1cccc(C)n1  Condition not met
27  Cc1cc(N2CCCC2)nc(NCc2cc(Nc3ccnc4cc(Cl)ccc34)ccc2F)n1  Condition not met
28  CC(C)(C)OC(=O)c1ccc(NCC2=CC(=O)C=CC2=O)cc1      Condition met
29  COC(=O)C1=CN(C2CCCCC2)C2(c3ccccc3)c3ccccc3C(=O)OC(=O)C12 (stereo not drawn)      Condition met
30  Cc1[nH]nc2c1N=C(c1ccccc1F)c1cc(C(N)=O)ccc1N2  Condition not met
31        CC(=O)ON1C(=O)c2cccc3cccc(c23)C1=O      Condition met
32  CC(C)(C)OC/C=C1\C(=O)O[C@H]2C[C@@H](O[Si](C)(C)C(C)(C)C)C[C@@H]12      Condition met
33  COc1ccc(/C=C2\CN(Cc3cn(CCNc4ccnc5cc(Cl)ccc45)nn3)C/C(=C\c3ccc(OC)c(OC)c3)C2=O)cc1OC  Condition not met
34             Cc1ccc(N2CCN(CCC(=O)O)CC2)cc1      Condition met
35  CCc1cc2ncc(CN3CCN(c4ccc(C(=O)NC)nc4)CC3)cc2[nH]c1=O      Condition met
36  CN(C)CC(C(=O)Cc1ccccc1)c1ccccc1 (stereo not drawn)  Condition not met
37  CCC(=O)Nc1ccccc1C#C/C=C\C#Cc1ccccc1C(F)(F)F      Condition met
38        NC(=O)/C=c1/c2ccccc2n2nc3ccccc3c12      Condition met
39  O=C(O)CNn1c(SCC(=O)O)nnc(/C=C/c2c(O)ccc3ccccc23)c1=O      Condition met
40                   CCCNC(=O)c1ccc(Cl)cc1Cl      Condition met
41        O=c1oc2ccc(Cl)cc2cc1-c1cn2ccccc2n1      Condition met
42          Oc1ccc(CCNCc2cc3c(cc2Br)OCO3)cc1      Condition met

Source: PubChem BioAssay (NCI)
